The measurements presented in this section are drawn from patent US11279687B2.

TARGET_OR_SYSTEM: NAMPT (Homo sapiens (Human))
Sequence (P43490 whole entry): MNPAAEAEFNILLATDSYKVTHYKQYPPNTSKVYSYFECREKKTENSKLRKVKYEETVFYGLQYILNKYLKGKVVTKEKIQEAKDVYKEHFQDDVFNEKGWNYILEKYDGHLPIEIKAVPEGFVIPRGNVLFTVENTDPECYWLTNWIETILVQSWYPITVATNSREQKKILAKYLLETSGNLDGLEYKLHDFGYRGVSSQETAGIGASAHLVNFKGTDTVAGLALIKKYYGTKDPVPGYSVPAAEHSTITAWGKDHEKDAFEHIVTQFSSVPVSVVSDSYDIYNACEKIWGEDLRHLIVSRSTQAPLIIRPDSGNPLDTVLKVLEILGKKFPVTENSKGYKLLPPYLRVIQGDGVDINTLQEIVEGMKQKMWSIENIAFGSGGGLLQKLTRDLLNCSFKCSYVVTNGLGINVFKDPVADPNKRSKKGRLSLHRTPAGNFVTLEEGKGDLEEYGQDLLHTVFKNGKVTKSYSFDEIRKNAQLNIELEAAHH
METHOD_SUMMARY: NAMPT biochemical inhibition assay (NMN quantified by mass spectrometry)
COND: NAMPT biochemical inhibition; read-out: Biochem IC50
This section presents compounds with their documented pIC50 values.
pIC50 here: minus log base 10 of the concentration, concentration in moles per litre.

Please give the documented pIC50 of COc1ccc(F)cc1NS(=O)(=O)c1ccc(NC(=O)NCc2cccnc2)cc1
9.00

Please give the documented pIC50 of O=C(NCc1ccc2nccn2c1)c1ccc(S(=O)(=O)c2ccccc2Cl)cc1
7.71

Please give the documented pIC50 of O=C(NCc1cccnc1)Nc1ccc(S(=O)(=O)c2ccc(Br)cc2)cc1
8.52

Please give the documented pIC50 of O=C(NCc1cccnc1)Nc1ccc(S(=O)(=O)c2cncc(F)c2)cc1
8.06

Please give the documented pIC50 of O=C(NCc1cccnc1)Nc1ccc(S(=O)(=O)N2CCC(c3ccccc3)CC2)cc1
8.52

---
Please give the documented pIC50 of O=C(NCc1cccnc1)Nc1ccc(S(=O)(=O)c2ccc(Cl)c(C(F)(F)F)c2)cc1
8.30

Please give the documented pIC50 of O=C(NCc1cccnc1)Nc1ccc(S(=O)(=O)c2cccc(-c3ccccc3)c2)cc1
8.17

Please give the documented pIC50 of O=C(NCc1cnccn1)Nc1ccc(S(=O)(=O)N2CCCCC2)cc1
6.56

Please give the documented pIC50 of O=C(NCc1cccnc1)Nc1ccc(S(=O)(=O)c2ccccc2Oc2ccccc2)cc1
8.70

Please give the documented pIC50 of O=C(NCc1cccnc1)Nc1ccc(S(=O)(=O)Nc2ccccc2Br)cc1
8.70

Please give the documented pIC50 of Cn1ncc2cc(S(=O)(=O)c3ccc(NC(=O)NCc4cccnc4)cc3)ccc21
8.74

Please give the documented pIC50 of N#Cc1ccc(S(=O)(=O)c2ccc(NC(=O)NCc3cccnc3)cc2)cc1
8.12

---

TARGET_OR_SYSTEM: NAMPT (Homo sapiens (Human))
METHOD_SUMMARY: NAMPT biochemical inhibition assay (NMN quantified by mass spectrometry)
COND: NAMPT biochemical inhibition; read-out: Biochem IC50
This section presents molecules with their documented pIC50 values.
pIC50 here: minus log base 10 of the concentration, concentration in moles per litre.

Here is how some molecules turned out for pIC50.
Please give the documented pIC50 of COCc1ccccc1S(=O)(=O)c1ccc(NC(=O)NCc2cccnc2)cc1
8.22

Please give the documented pIC50 of O=C(NCc1cccnc1)Nc1ccc(S(=O)(=O)c2ccccc2C(F)(F)F)cc1
8.52

Kindly review the next molecule as well.
Please give the documented pIC50 of Cc1ccccc1N1CCN(S(=O)(=O)c2ccc(NC(=O)NCc3cccnc3)cc2)CC1
8.22

---

TARGET_OR_SYSTEM: NAMPT (Homo sapiens (Human))
METHOD_SUMMARY: NAMPT biochemical inhibition assay (NMN quantified by mass spectrometry)
COND: NAMPT biochemical inhibition; read-out: Biochem IC50
PROPERTY_MEASURED: log10 IC50 (log10 of the value in nM)
Friendly reminder: values = log10 of IC50, unit nM.

Here is how some compounds turned out for log10 IC50.
Supply log10 IC50 measured with NAMPT (Homo sapiens (Human)) for C[C@@H](c1ccccc1)N(C)S(=O)(=O)c1ccc(NC(=O)NCc2cccnc2)cc1 .
0.00

Supply log10 IC50 measured with NAMPT (Homo sapiens (Human)) for O=C(NCc1cccnc1)Nc1ccc(S(=O)(=O)Nc2ccc(Cl)cc2Cl)cc1 .
0.48

Supply log10 IC50 measured with NAMPT (Homo sapiens (Human)) for O=C(NCc1cccnc1)Nc1ccc(S(=O)(=O)N2CCc3ncccc3C2)cc1 .
1.20

---
Supply log10 IC50 measured with NAMPT (Homo sapiens (Human)) for CCOc1ccc(S(=O)(=O)c2ccc(NC(=O)NCc3cccnc3)cc2)cc1 .
0.34

Supply log10 IC50 measured with NAMPT (Homo sapiens (Human)) for COc1ccc(Cl)cc1NS(=O)(=O)c1ccc(C(=O)NCc2ccc3nccn3c2)cc1 .
0.33

Supply log10 IC50 measured with NAMPT (Homo sapiens (Human)) for Cn1ncc2cccc(S(=O)(=O)c3ccc(NC(=O)NCc4cccnc4)cc3)c21 .
1.16

Supply log10 IC50 measured with NAMPT (Homo sapiens (Human)) for O=C(NCc1cccnc1)Nc1ccc([S+]([O-])c2ccc(Cl)cc2)cc1 (stereo not shown) .
0.90

Supply log10 IC50 measured with NAMPT (Homo sapiens (Human)) for COc1ccc(Cl)cc1S(=O)(=O)c1ccc(NC(=O)NCc2cccnc2)cc1 .
0.70

Supply log10 IC50 measured with NAMPT (Homo sapiens (Human)) for O=C(NCc1cccnc1)Nc1ccc(S(=O)(=O)c2cc(C(F)(F)F)ccc2Cl)cc1 .
0.70

Supply log10 IC50 measured with NAMPT (Homo sapiens (Human)) for CCOc1cc(S(=O)(=O)c2ccc(NC(=O)NCc3cccnc3)cc2)ccc1F .
0.59

Supply log10 IC50 measured with NAMPT (Homo sapiens (Human)) for Cc1ccc(S(=O)(=O)c2ccc(NC(=O)NCc3cccnc3)cc2)cc1 .
0.64

Supply log10 IC50 measured with NAMPT (Homo sapiens (Human)) for O=C(NCc1cccnc1)Nc1ccc(S(=O)(=O)N2CCC[C@H](C(=O)N3CCCC3)C2)cc1 .
0.95

Supply log10 IC50 measured with NAMPT (Homo sapiens (Human)) for O=C(NCc1cccnc1)Nc1ccc(S(=O)(=O)Nc2cccc3c2CCCC3)cc1 .
-0.52

---

TARGET_OR_SYSTEM: UniProt P43490
METHOD_SUMMARY: NAMPT biochemical inhibition assay (NMN quantified by mass spectrometry)
COND: NAMPT biochemical inhibition; read-out: Biochem IC50
PROPERTY_MEASURED: pIC50
pIC50 here: minus log base 10 of the concentration, concentration in moles per litre.

Supply pIC50 measured with UniProt P43490 for O=C(NCc1cccnc1)Nc1ccc(S(=O)(=O)Nc2ccc(Cl)c(Cl)c2)cc1 .
8.22

---
Supply pIC50 measured with UniProt P43490 for O=C(NCc1cccnc1)Nc1ccc(S(=O)(=O)N2CCC(C(=O)c3ccc(F)cc3)CC2)cc1 .
8.00

Supply pIC50 measured with UniProt P43490 for CN1CCCC2(CCCN(S(=O)(=O)c3ccc(NC(=O)NCc4cccnc4)cc3)C2)C1 (stereo not shown) .
9.00

Supply pIC50 measured with UniProt P43490 for O=C(NCc1cccnc1)Nc1ccc(S(=O)(=O)c2ccc(Cl)c(Cl)c2)cc1 .
8.54

Supply pIC50 measured with UniProt P43490 for O=C(NCc1cccnc1)Nc1ccc(S(=O)(=O)N2CCN(C(c3ccc(F)cc3)c3ccc(F)cc3)CC2)cc1 .
8.30

Supply pIC50 measured with UniProt P43490 for O=C(NCc1cccnc1)Nc1ccc(S(=O)(=O)c2ccc(F)cc2F)cc1 .
9.00

Supply pIC50 measured with UniProt P43490 for COc1ccc(S(=O)(=O)c2ccc(NC(=O)NCc3cccnc3)cc2)cc1 .
8.62

---

TARGET_OR_SYSTEM: UniProt:P43490
METHOD_SUMMARY: NAMPT biochemical inhibition assay (NMN quantified by mass spectrometry)
COND: NAMPT biochemical inhibition; read-out: Biochem IC50
This section presents compounds with their documented IC50 values.
Report as a plain number; the unit nM is understood.

Here is how some compounds turned out for IC50.
Please give the documented IC50 of O=C(NCc1cccnc1)Nc1ccc(S(=O)(=O)Nc2ccccc2Cl)cc1
3

Please give the documented IC50 of O=C(NCc1cccnc1)Nc1ccc(S(=O)(=O)N2CCCCC2)cc1F
23

Please give the documented IC50 of CN(Cc1cccc(F)c1)S(=O)(=O)c1ccc(NC(=O)NCc2cccnc2)cc1
2

Kindly review the next compound as well.
Please give the documented IC50 of COc1ccc(C(C)C)cc1S(=O)(=O)c1ccc(NC(=O)NCc2cccnc2)cc1
3

---

TARGET_OR_SYSTEM: UniProt P43490
METHOD_SUMMARY: NAMPT biochemical inhibition assay (NMN quantified by mass spectrometry)
COND: NAMPT biochemical inhibition; read-out: Biochem IC50
PROPERTY_MEASURED: pIC50
pIC50 here: minus log base 10 of the concentration, concentration in moles per litre.

Please give the documented pIC50 of Cc1ccc(Cl)cc1NS(=O)(=O)c1ccc(NC(=O)NCc2cccnc2)cc1
9.00

Please give the documented pIC50 of O=C(NCc1cccnc1)Nc1ccc(S(=O)(=O)N2CCN(CCCN3CCOCC3)CC2)cc1
8.52

Please give the documented pIC50 of Cc1ccc(S(=O)(=O)c2ccc(NC(=O)NCc3cccnc3)cc2)cc1Cl
9.05

Please give the documented pIC50 of COc1cccc(OC)c1S(=O)(=O)c1ccc(NC(=O)NCc2cccnc2)cc1
8.15

Please give the documented pIC50 of CC(C)(C)CNS(=O)(=O)c1ccc(NC(=O)NCc2cccnc2)cc1
7.77

Please give the documented pIC50 of NS(=O)(=O)c1cccc(S(=O)(=O)c2ccc(NC(=O)NCc3cccnc3)cc2)c1
8.42

Please give the documented pIC50 of Cc1ccc(S(=O)(=O)c2ccc(NC(=O)NCc3cccnc3)cc2)s1
8.52

Please give the documented pIC50 of Cc1cc(C)cc(NS(=O)(=O)c2ccc(NC(=O)NCc3cccnc3)cc2)c1
9.00

---
Please give the documented pIC50 of CCOc1ccc(NS(=O)(=O)c2ccc(NC(=O)NCc3cccnc3)cc2)c(F)c1
8.40
